B1: DLC1 (parent)
chain: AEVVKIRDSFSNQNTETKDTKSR

variants of: B1; assay: protein stability index of a GFP-peptide fusion (GPS, HEK-293T) (PSI 1-6); higher = more stable; conditions: c terminus: native;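 also: lentivirally expressed fusions sorted by FACS into six bins by GFP to DsRed ratio, PSI derived from sequencing read proportions per bin multiplied by bin number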
Catalogue of variants with associated protein stability index
Give only the figure.

ALTERATION	REPORTED_VALUE
T15E	3.38
R7L	3.01
K18G	2.13
N14S	1.96
T20Q	2.42
D19Q	1.99

Indicate its recorded protein stability index; the variant in question is D19Y
2.69

// fetch protein stability index given entry S22A
1.93

Return value of protein stability index for input E16P , no commentary.
2.41

Give protein stability index for V4D
3.04

Fill in protein stability index for record N12G
2.51
